ASSAY: qHTS assay to identify small molecule agonists of the hypoxia (HIF-1) signaling pathway - cell viability counter screen (AID 1224844); further: nearly all actives have a fitted effect of over 50% in size
RUN PARAMETERS: HRE-bla ME-180 viability, CellTiter-Glo luminescence, 17 h; series mostly up to 76.8 µM
Inconclusive results are not listed. Activity calls are given as the source filed them. The call rests on the fitted dose curve.
PROPERTY NAME: outcome

>>> recorded_result("NCCCCCCN")
"inactive"
>>> recorded_result("C[C@]12CC[C@@H]3c4ccc(O)cc4CC[C@H]3[C@@H]1C[C@@H](O)[C@@H]2O")
"inactive"
>>> recorded_result("CC(=O)OCCOC(C)=O")
"inactive"
>>> recorded_result("CCCCCCC=O")
"inactive"
>>> recorded_result("C=CCCCCCCCCC(=O)O")
"inactive"
>>> recorded_result("Cc1ccc2ncccc2c1")
"inactive"
>>> recorded_result("CNC(=S)N(C)C")
"inactive"
>>> recorded_result("CCCCCCCCCCCCCCCC(=O)OC(C)C")
"inactive"
>>> recorded_result("CC(=O)OCc1ccccc1")
"inactive"
>>> recorded_result("O=C(O)c1cc2ccccc2cc1O")
"inactive"
>>> recorded_result("Brc1ccc(Br)c(Br)c1")
"inactive"
>>> recorded_result("O=C(O)CCCCCCCCC(=O)O")
"inactive"
>>> recorded_result("Nc1ccc(Cl)c(N)c1")
"inactive"
>>> recorded_result("C=C(C)CNCC")
"inactive"
>>> recorded_result("CCOC(=O)n1ccn(C)c1=S")
"inactive"
>>> recorded_result("O=C(O)c1ccc(C(=O)O)c(C(=O)O)c1")
"inactive"
>>> recorded_result("CC1(C)NC(=O)NC1=O")
"inactive"
>>> recorded_result("CC(C)(C)c1cc(Cc2cc(C(C)(C)C)c(O)c(C(C)(C)C)c2)cc(C(C)(C)C)c1O")
"inactive"
>>> recorded_result("C=C(C)[C@H]1CC=C(C)C(=O)C1")
"inactive"
>>> recorded_result("N#Cc1ccccc1")
"inactive"
>>> recorded_result("C=CC[N+](C)(C)CC=C")
"inactive"
>>> recorded_result("O=[N+]([O-])c1ccc2nc[nH]c2c1")
"inactive"
>>> recorded_result("CN(C)c1ccc(O)c2c1C[C@H]1C[C@H]3[C@H](N(C)C)C(=O)C(C(N)=O)=C(O)[C@@]3(O)C(=O)C1=C2O")
"inactive"
>>> recorded_result("CC(=O)OC1CC(C)OC(C)O1 (configuration not stated)")
"inactive"
>>> recorded_result("CSc1ccc(Cl)cc1")
"inactive"
>>> recorded_result("COCCCN")
"inactive"
>>> recorded_result("CC(C)OP(=O)(CP(=O)(OC(C)C)OC(C)C)OC(C)C")
"inactive"
>>> recorded_result("CCCCCCO")
"inactive"
>>> recorded_result("O=C1c2ccccc2CCc2ccccc21")
"inactive"
>>> recorded_result("CC(=O)Oc1ccc(C)cc1")
"inactive"
>>> recorded_result("CC(C)c1cccc(C(C)C)c1")
"inactive"
>>> recorded_result("CCCCOC(=O)c1ccc(N)cc1")
"inactive"
>>> recorded_result("O=S(=O)(O)c1ccc(N=Nc2c(O)ccc3cc(S(=O)(=O)O)ccc23)cc1")
"inactive"
>>> recorded_result("CCCCCCCCCCN")
"inactive"
>>> recorded_result("CCO[Si](CCC#N)(OCC)OCC")
"inactive"
>>> recorded_result("COc1ccc(C)cc1N")
"inactive"
>>> recorded_result("CCNc1cccc(C)c1")
"inactive"
>>> recorded_result("CC(CCl)OP(=O)(OC(C)CCl)OC(C)CCl (configuration not stated)")
"inactive"
>>> recorded_result("OCc1ccccc1")
"inactive"
>>> recorded_result("Cc1ccc(C(C)C)c(O)c1")
"inactive"
>>> recorded_result("O=C(O)c1ccccc1C(=O)O")
"inactive"
>>> recorded_result("CC(C)CC(C)O (configuration not stated)")
"inactive"

# credit: PubChem BioAssay (Tox21)
